# Test system: Huh-7 cells, genotype 1b HCV replicon
# PROCEDURE DETAILS: Inhibition of HCV replication in cell culture, genotype 1b replicon
# Type: cell-based, hepatitis C virus
# EXPERIMENTAL SETUP: Hepatitis C virus, Huh-7, 24 h, Huh-7, genotype 1b replicon; intracellular HCV RNA 24 h after 3 daily doses; read-out: EC50
pEC50: −log10 of the molar value.
// pEC50 lookup, one value per entry

NCCCCC[C@H](NC(=O)Nc1ccc(OCc2ccccc2)cc1)C(=O)Nc1ccc(C2CCCCC2)cc1 [Compound 121]: > 6.30
CC1CCC(NC(=O)[C@H](CCCCN)NC(=O)Nc2ccc(OCc3ccccc3)cc2)CC1 (some centres unmarked) [Compound 264]: > 6.30
Cc1ccc(NC(=O)C(CCCCN)NC(=O)Nc2cccc(-c3ccccc3)c2)cc1 (centres unmarked) [Compound 127]: < 5.70
NCCCCC[C@H](NC(=O)NCc1ccccc1)C(=O)Nc1ccc(C2CCCCC2)cc1 [Compound 120]: < 5.70

Q: Output pEC50 of NCCCC[C@H](NC(=O)Nc1ccc(-c2ccccc2)cc1)C(=O)Nc1ccc(CN(C(=O)c2ccco2)C2CCCCC2)cc1 [Compound 26]
Ans: < 5.70

Q: Dear colleague, please send me the reported pEC50 for Cc1cc2cc(NC(=O)[C@H](CCCCN)NC(=O)Nc3ccc(-c4ccccc4)cc3)ccc2[nH]1 [Compound 94] when you can.
Ans: < 5.70

Q: Please look at this molecule and report its pEC50: NCCCC[C@@H](NC(=O)Nc1ccc(OCc2ccccc2)cc1)C(=O)Nc1ccc(C2CCCCC2)cc1 [Compound 166]
Ans: < 5.70

Q: Could you please provide reported pEC50 for NCCCCN(CC(=O)Nc1ccc(C2CCCCC2)cc1)C(=O)Nc1ccc(C=Cc2ccccc2)cc1 [Compound 324] ? Thanks!
Ans: < 5.70

Q: Determine its reported pEC50: Cc1cc2cc(NC(=O)[C@H](CCCCN)NC(=O)Nc3ccc(OCc4ccccc4)cc3)ccc2[nH]1 [Compound 206]
Ans: < 5.70

Q: Using the record for Cc1ccc(NC(=O)C(CNC(=O)CN)NC(=O)Nc2ccc(OCc3ccccc3)cc2)cc1 (centres unmarked) [Compound 268] , state its measured pEC50.
Ans: < 5.70

Q: Dear colleague, please send me the reported pEC50 for Cc1ccc(NC(=O)[C@H](CCCCN)NC(=O)CNc2ccccc2Oc2ccccc2)cc1 [Compound 366] when you can.
Ans: < 5.70

Q: Indicate the recorded pEC50 value for this molecule: Cc1cc2cc(NC(=O)[C@H](CCCNC(=O)CN)NC(=O)Nc3ccc4c(c3)Cc3ccccc3-4)ccc2[nH]1 [Compound 297]
Ans: > 6.30

Q: Give the reported value of pEC50 for this record: Cc1ccc(NC(=O)[C@H](CCCCN)NC(=O)CNc2cccc(Oc3ccccc3)c2)cc1 [Compound 367]
Ans: < 5.70

Q: Identify pEC50 associated with the molecule NCCCC[C@@H](NC(=O)Nc1ccc(-c2ccccc2)cc1)C(=O)Nc1ccc(C2CCCCC2)cc1 [Compound 142]
Ans: > 6.30
